target: AMP-activated protein kinase (AMPK) alpha-1/beta-1/gamma-1 (Homo sapiens, UniProt P54619+Q13131+Q9Y478); test: Activation of human AMPK alpha1/beta1/gamma1 expressed in baculovirus/Sf9 cells using SAMS peptide as substrate incubated for 15 mins by in presence of 33P-ATP by liquid scintillation counting method
Sequence (Q9Y478 whole entry, one chain of several): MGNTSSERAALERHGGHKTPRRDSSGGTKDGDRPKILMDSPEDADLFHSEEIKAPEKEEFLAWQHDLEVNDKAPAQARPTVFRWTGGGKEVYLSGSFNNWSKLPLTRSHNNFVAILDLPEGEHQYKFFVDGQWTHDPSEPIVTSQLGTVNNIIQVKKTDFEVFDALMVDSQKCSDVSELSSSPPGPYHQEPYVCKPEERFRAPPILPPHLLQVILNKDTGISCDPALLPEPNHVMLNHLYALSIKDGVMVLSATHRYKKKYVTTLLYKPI
assay endpoint: EC50 (nM)
Please give a number only; it is taken to be in nM.

Query N#Cc1c(O)c2c(-c3ccc(-c4ccccc4O)cc3)csc2[nH]c1=O yields EC50 of 800

* * *

molecular target: AMP-activated protein kinase (AMPK) alpha-1/beta-1/gamma-1 (Homo sapiens) (UniProt P54619+Q9Y478+Q13131); experiment: Activation of C-terminal His tagged human recombinant full length AMPK alpha1/beta1/gamma1 expressed in baculovirus infected Sf9 cells assessed as enzyme activation using SAMS peptide as substrate at 100 uM incubated for 60 mins by ADP-Glo luminescence assay relative to control
Sequence (P54619 whole entry): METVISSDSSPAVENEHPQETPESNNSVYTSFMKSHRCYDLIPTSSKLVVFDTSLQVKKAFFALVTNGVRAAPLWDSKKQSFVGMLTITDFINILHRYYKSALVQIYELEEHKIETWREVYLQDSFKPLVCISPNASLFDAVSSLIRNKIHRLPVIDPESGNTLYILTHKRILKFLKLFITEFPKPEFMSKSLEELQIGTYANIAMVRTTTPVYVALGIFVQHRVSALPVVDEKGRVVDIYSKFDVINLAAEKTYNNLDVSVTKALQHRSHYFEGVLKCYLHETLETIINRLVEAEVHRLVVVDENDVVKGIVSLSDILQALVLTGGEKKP
Sequence (Q13131 whole entry partner): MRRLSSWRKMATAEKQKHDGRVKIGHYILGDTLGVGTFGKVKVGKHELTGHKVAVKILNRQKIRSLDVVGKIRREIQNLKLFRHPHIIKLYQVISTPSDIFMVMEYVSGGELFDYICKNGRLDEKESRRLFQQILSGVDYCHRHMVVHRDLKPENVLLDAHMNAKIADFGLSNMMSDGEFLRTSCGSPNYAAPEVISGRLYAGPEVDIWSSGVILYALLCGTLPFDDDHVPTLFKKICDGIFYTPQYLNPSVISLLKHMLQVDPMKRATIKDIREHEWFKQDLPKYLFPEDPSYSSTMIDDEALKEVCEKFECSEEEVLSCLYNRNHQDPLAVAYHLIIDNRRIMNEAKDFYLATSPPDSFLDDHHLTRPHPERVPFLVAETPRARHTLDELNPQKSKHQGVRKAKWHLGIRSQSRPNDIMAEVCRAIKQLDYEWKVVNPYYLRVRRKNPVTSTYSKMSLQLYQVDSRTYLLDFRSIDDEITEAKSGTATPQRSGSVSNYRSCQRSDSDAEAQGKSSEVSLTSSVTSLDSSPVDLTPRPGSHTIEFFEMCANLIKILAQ
Sequence (Q9Y478 2-270 partner limits assumed): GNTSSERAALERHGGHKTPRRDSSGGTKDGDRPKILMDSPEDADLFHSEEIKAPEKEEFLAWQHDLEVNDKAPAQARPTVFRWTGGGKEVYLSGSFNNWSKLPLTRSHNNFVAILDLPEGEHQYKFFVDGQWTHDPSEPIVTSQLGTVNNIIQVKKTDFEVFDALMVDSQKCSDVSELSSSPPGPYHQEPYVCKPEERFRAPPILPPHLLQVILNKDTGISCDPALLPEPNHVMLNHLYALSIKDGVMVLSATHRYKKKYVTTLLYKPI
Parameter fold change (FC): see the listing below.

Query Br.N#Cc1ccccc1-c1ccc(CN2C3=NCCN3c3ccccc32)cc1 yields fold change (FC) of 1.56

Query Br.N#Cc1ccccc1-c1ccc(CN2C3=NCCCCN3c3ccccc32)cc1 yields fold change (FC) of 4

Query Br.N#Cc1ccccc1-c1ccc(CN2C3=NCCCN3c3ccccc32)cc1 yields fold change (FC) of 2.81

* * *

biological target: AMP-activated protein kinase (AMPK) alpha-1/beta-1/gamma-1 (Homo sapiens) (UniProt P54619+Q9Y478+Q13131); assay: Activation of C-terminal His tagged human recombinant full length AMPK alpha1/beta1/gamma1 expressed in baculovirus infected Sf9 cells using SAMS peptide as substrate at 100 uM incubated for 60 mins by ADP-Glo luminescence assay relative to control
assay endpoint: Activity
Dear colleague, please send the value followed by its unit.

// known answers, use as guide
COC(=O)c1ccccc1-c1ccc(CN2C3=NCCN3c3ccccc32)cc1 = 3.5%
Br.c1ccc(-c2ccc(CN3C4=NCCCN4c4ccccc43)cc2)cc1 = 16%
O=C(O)c1ccccc1-c1ccc(CN2C3=NCCN3c3ccccc32)cc1 = 6.9%
Br.N#Cc1ccc(C(=O)CN2C3=NCCN3c3ccccc32)cc1 = 25.5%

Query Br.N#Cc1ccccc1-c1ccc(CN2C3=NCCCN3c3ccccc32)cc1 yields Activity of 197%

Query O=C(O)c1ccccc1-c1ccc(CN2C3=NCCCCN3c3ccccc32)cc1 yields Activity of -36.4%

Query Br.c1ccc(-c2ccc(CN3C4=NCCCCN4c4ccccc43)cc2)cc1 yields Activity of 12.3%

* * *

target: AMP-activated protein kinase (AMPK) alpha-1/beta-1/gamma-1 (Homo sapiens, UniProt P54619+Q13131+Q9Y478); assay: Activation of C-terminal His tagged human recombinant full length AMPK alpha1/beta1/gamma1 expressed in baculovirus infected Sf9 cells using SAMS peptide as substrate incubated for 60 mins by ADP-Glo luminescence assay; conditions: read-out: EC50
assay endpoint: pEC50
Convention used: pEC50 is expressed as -log10 of the molar concentration.

// known answers, use as guide
Br.N#Cc1ccccc1-c1ccc(CN2C3=NCCCN3c3ccccc32)cc1 = 6.47
Cc1ccc(OCCSc2ncccn2)c(Br)c1 = 6.26
Br.N#Cc1ccccc1-c1ccc(CN2C3=NCCN3c3ccccc32)cc1 = 3.96

Please examine the following record next.
Query Br.N#Cc1ccccc1-c1ccc(CN2C3=NCCCCN3c3ccccc32)cc1 yields pEC50 of 6.36

* * *

Parameter Activity: see the listing below.
target: AMP-activated protein kinase (AMPK) alpha-1/beta-1/gamma-1 (Homo sapiens) (UniProt P54619+Q9Y478+Q13131); test: Activation of C-terminal His tagged human recombinant full length AMPK alpha1/beta1/gamma1 expressed in baculovirus infected Sf9 cells using SAMS peptide as substrate at 100 uM incubated for 60 mins by ADP-Glo luminescence assay relative to control
Please give a number only; it is taken to be in %.

// known answers, use as guide
Br.N#Cc1ccccc1-c1ccc(CN2C3=NCCN3c3ccccc32)cc1 = 163
Br.O=C(O)c1ccc(CN2C3=NCCN3c3ccccc32)cc1 = 3.7
Br.N#Cc1ccccc1-c1ccc(CN2C3=NCCCCN3c3ccccc32)cc1 = 293

Please examine the following record next.
Query O=C(O)c1ccccc1-c1ccc(CN2C3=NCCCN3c3ccccc32)cc1 yields Activity of -16.2
